Could you please report measured viability, T/C for the items listed next?
system: 624824-186-R-J3-PDC multicell spheroids, viability; experiment: Anticancer human tumor 624824-186-R-J3-PDC patient-derived colon adenocarcinoma cell line growth inhibition [PI3K]; settings: second compound 0.316 µM; first compound 0.0316 µM; active compounds read low
Your answer should be a plain number; it is taken to be in %.

Input: Would you mind telling me what viability, T/C value was observed for C=CC(=O)N1CCN(c2nc(=O)n(-c3c(C)ccnc3C(C)C)c3nc(-c4c(O)cccc4F)c(F)cc23)C(C)C1 (stereo not given) + Cc1nc(NC(=O)N2CCCC2C(N)=O)sc1-c1ccnc(C(C)(C)C(F)(F)F)c1 ?
Output: 109

Input: Same again, this time with CNC(=O)c1ccc(N2C(=S)N(c3ccc(C#N)c(C(F)(F)F)c3)C(=O)C2(C)C)cc1F + CC(Nc1ncnc2nc[nH]c12)c1cc2cccc(Cl)c2c(=O)n1-c1ccccc1
Output: 96.6

Input: Same again, this time with CCN1CCN(Cc2ccc(Nc3ncc(F)c(-c4cc(F)c5nc(C)n(C(C)C)c5c4)n3)nc2)CC1 + COc1c(OCCCN2CCOCC2)ccc2c3n(c(=NC(=O)c4cnc(N)nc4)nc12)CCN3
Output: 41.5

Input: Same again, this time with CC1(C)CCC(CN2CCN(c3ccc(C(=O)NS(=O)(=O)c4ccc(NCC5CCOCC5)c([N+](=O)[O-])c4)c(Oc4cnc5[nH]ccc5c4)c3)CC2)=C(c2ccc(Cl)cc2)C1 + Cc1nc(NC(=O)N2CCCC2C(N)=O)sc1-c1ccnc(C(C)(C)C(F)(F)F)c1
Output: 119

Input: Same again, this time with CCCS(=O)(=O)Nc1ccc(F)c(C(=O)c2c[nH]c3ncc(-c4ccc(Cl)cc4)cc23)c1F + CC(Nc1ncnc2nc[nH]c12)c1cc2cccc(Cl)c2c(=O)n1-c1ccccc1
Output: 102

###

tested on: 624824-186-R-J3-PDC multicell spheroids, viability; test: Anticancer human tumor 624824-186-R-J3-PDC cell line growth inhibition [PI3K]; conditions: second compound 3.16 µM; first compound 0.316 µM; active compounds read low;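 further: luminescent signal used as a stand-in for spheroid viability; spheroids exposed to agents for seven days before luminescence read; percent viability relative to DMSO vehicle control wells taken as 100%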
Could you please report measured viability, T/C for the items listed next?

Input: Would you mind telling me what viability, T/C value was observed for CC1(C)CCC(CN2CCN(c3ccc(C(=O)NS(=O)(=O)c4ccc(NCC5CCOCC5)c([N+](=O)[O-])c4)c(Oc4cnc5[nH]ccc5c4)c3)CC2)=C(c2ccc(Cl)cc2)C1 + Cc1nc(NC(=O)N2CCCC2C(N)=O)sc1-c1ccnc(C(C)(C)C(F)(F)F)c1 ?
Output: 90.8%

Input: Same again, this time with CC(C)NCC(C(=O)N1CCN(c2ncnc3c2C(C)CC3O)CC1)c1ccc(Cl)cc1 (stereo not given) + CC(Nc1ncnc2nc[nH]c12)c1cc2cccc(Cl)c2c(=O)n1-c1ccccc1
Output: 89.5%

Input: Same again, this time with CCN1CCN(Cc2ccc(Nc3ncc(F)c(-c4cc(F)c5nc(C)n(C(C)C)c5c4)n3)nc2)CC1 + CC(Nc1ncnc2nc[nH]c12)c1cc2cccc(Cl)c2c(=O)n1-c1ccccc1
Output: 88.1%

Input: Same again, this time with C=CC(=O)N1CCN(c2nc(=O)n(-c3c(C)ccnc3C(C)C)c3nc(-c4c(O)cccc4F)c(F)cc23)C(C)C1 (stereo not given) + Cc1nc(NC(=O)N2CCCC2C(N)=O)sc1-c1ccnc(C(C)(C)C(F)(F)F)c1
Output: 90.9%

Input: Same again, this time with CC(Cn1ccc(-c2ccc(C#N)c(Cl)c2)n1)NC(=O)c1cc(C(C)O)[nH]n1 (stereo not given) + Cc1nc(NC(=O)N2CCCC2C(N)=O)sc1-c1ccnc(C(C)(C)C(F)(F)F)c1
Output: 88.3%

###

tested on: 624824-186-R-J3-PDC multicell spheroids, viability; assay: Anticancer human tumor 624824-186-R-J3-PDC cell line growth inhibition [PI3K]; conditions: second compound 0.316 µM; first compound 0.316 µM; active compounds read low;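 further: luminescent signal used as a stand-in for spheroid viability; spheroids exposed to agents for seven days before luminescence read; percent viability relative to DMSO vehicle control wells taken as 100%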
experimental_readout: viability, T/C (%)
Your answer should be a plain number; it is taken to be in %.

Input: Would you mind telling me what viability, T/C value was observed for Cn1nccc1Nc1nccc(-c2ccn(C(CO)c3ccc(Cl)c(F)c3)c(=O)c2)n1 (centres undefined) + Cc1nc(NC(=O)N2CCCC2C(N)=O)sc1-c1ccnc(C(C)(C)C(F)(F)F)c1 ?
Output: 78

Input: Same again, this time with C[C@@H](NC(=O)c1ncnc(N)c1Cl)c1ncc(C(=O)Nc2cc(C(F)(F)F)c(Cl)cn2)s1 + COc1c(OCCCN2CCOCC2)ccc2c3n(c(=NC(=O)c4cnc(N)nc4)nc12)CCN3
Output: 59.2

Input: Same again, this time with C#Cc1c(F)ccc2cc(O)cc(-c3ncc4c(N5CC6CCC(C5)N6)nc(OCC56CCCN5CC(F)C6)nc4c3F)c12 (centres undefined) + Cc1nc(NC(=O)N2CCCC2C(N)=O)sc1-c1ccnc(C(C)(C)C(F)(F)F)c1
Output: 108

Input: Same again, this time with CC1(C)CCC(CN2CCN(c3ccc(C(=O)NS(=O)(=O)c4ccc(NCC5CCOCC5)c([N+](=O)[O-])c4)c(Oc4cnc5[nH]ccc5c4)c3)CC2)=C(c2ccc(Cl)cc2)C1 + CC(Nc1ncnc2nc[nH]c12)c1cc2cccc(Cl)c2c(=O)n1-c1ccccc1
Output: 108

Input: Same again, this time with CC1(C)CCC(CN2CCN(c3ccc(C(=O)NS(=O)(=O)c4ccc(NCC5CCOCC5)c([N+](=O)[O-])c4)c(Oc4cnc5[nH]ccc5c4)c3)CC2)=C(c2ccc(Cl)cc2)C1 + Cc1nc(NC(=O)N2CCCC2C(N)=O)sc1-c1ccnc(C(C)(C)C(F)(F)F)c1
Output: 107

Input: Same again, this time with CC(C)NCC(C(=O)N1CCN(c2ncnc3c2C(C)CC3O)CC1)c1ccc(Cl)cc1 (centres undefined) + CC(Nc1ncnc2nc[nH]c12)c1cc2cccc(Cl)c2c(=O)n1-c1ccccc1
Output: 106

Input: Same again, this time with CCN1CCN(Cc2ccc(Nc3ncc(F)c(-c4cc(F)c5nc(C)n(C(C)C)c5c4)n3)nc2)CC1 + CC(Nc1ccc2c(c1)OCCn1cc(N3C(=O)OCC3C(F)F)nc1-2)C(N)=O
Output: 54.6

Input: Same again, this time with C=CC(=O)N1CCN(c2nc(=O)n(-c3c(C)ccnc3C(C)C)c3nc(-c4c(O)cccc4F)c(F)cc23)C(C)C1 (centres undefined) + CC(Nc1ncnc2nc[nH]c12)c1cc2cccc(Cl)c2c(=O)n1-c1ccccc1
Output: 100

Input: Same again, this time with Cn1ncc(Cl)c1-c1cc(C(=O)NC(CN)Cc2cccc(F)c2)sc1Cl (centres undefined) + CC(Nc1ncnc2nc[nH]c12)c1cc2cccc(Cl)c2c(=O)n1-c1ccccc1
Output: 90.7

Input: Same again, this time with CCN1CCN(Cc2ccc(Nc3ncc(F)c(-c4cc(F)c5nc(C)n(C(C)C)c5c4)n3)nc2)CC1 + Cc1nc(NC(=O)N2CCCC2C(N)=O)sc1-c1ccnc(C(C)(C)C(F)(F)F)c1
Output: 88.1

Input: Same again, this time with CCCS(=O)(=O)Nc1ccc(F)c(C(=O)c2c[nH]c3ncc(-c4ccc(Cl)cc4)cc23)c1F + COc1c(OCCCN2CCOCC2)ccc2c3n(c(=NC(=O)c4cnc(N)nc4)nc12)CCN3
Output: 31.8

Input: Same again, this time with Cn1nccc1Nc1nccc(-c2ccn(C(CO)c3ccc(Cl)c(F)c3)c(=O)c2)n1 (centres undefined) + CC(Nc1ncnc2nc[nH]c12)c1cc2cccc(Cl)c2c(=O)n1-c1ccccc1
Output: 87

Input: Same again, this time with CCN1CCN(Cc2ccc(Nc3ncc(F)c(-c4cc(F)c5nc(C)n(C(C)C)c5c4)n3)nc2)CC1 + CC(Nc1ncnc2nc[nH]c12)c1cc2cccc(Cl)c2c(=O)n1-c1ccccc1
Output: 99.8

Input: Same again, this time with CCCS(=O)(=O)Nc1ccc(F)c(C(=O)c2c[nH]c3ncc(-c4ccc(Cl)cc4)cc23)c1F + CC(Nc1ncnc2nc[nH]c12)c1cc2cccc(Cl)c2c(=O)n1-c1ccccc1
Output: 108

Input: Same again, this time with C#Cc1c(F)ccc2cc(O)cc(-c3ncc4c(N5CC6CCC(C5)N6)nc(OCC56CCCN5CC(F)C6)nc4c3F)c12 (centres undefined) + CC(Nc1ncnc2nc[nH]c12)c1cc2cccc(Cl)c2c(=O)n1-c1ccccc1
Output: 109

Input: Same again, this time with CNC(=O)c1ccc(N2C(=S)N(c3ccc(C#N)c(C(F)(F)F)c3)C(=O)C2(C)C)cc1F + COc1c(OCCCN2CCOCC2)ccc2c3n(c(=NC(=O)c4cnc(N)nc4)nc12)CCN3
Output: 47.5

Input: Same again, this time with C=CC(=O)N1CCN(c2nc(=O)n(-c3c(C)ccnc3C(C)C)c3nc(-c4c(O)cccc4F)c(F)cc23)C(C)C1 (centres undefined) + CC(Nc1ccc2c(c1)OCCn1cc(N3C(=O)OCC3C(F)F)nc1-2)C(N)=O
Output: 94.5

Input: Same again, this time with Cn1nccc1Nc1nccc(-c2ccn(C(CO)c3ccc(Cl)c(F)c3)c(=O)c2)n1 (centres undefined) + CC(Nc1ccc2c(c1)OCCn1cc(N3C(=O)OCC3C(F)F)nc1-2)C(N)=O
Output: 76.6

Input: Same again, this time with C#Cc1c(F)ccc2cc(O)cc(-c3ncc4c(N5CC6CCC(C5)N6)nc(OCC56CCCN5CC(F)C6)nc4c3F)c12 (centres undefined) + COc1c(OCCCN2CCOCC2)ccc2c3n(c(=NC(=O)c4cnc(N)nc4)nc12)CCN3
Output: 54.1
